Reference source for all entries: patent US4818754A

Test system: swelling induced by cantharidin
Assay Procedure: Mouse cantharidin test (topical anti-inflammatory activity, mouse ear swelling)
Type: in vivo
Settings: dose 200 μg/ear, 24 hours, CDl male mice, **p < 0.01, ***p < 0.001
Measure Name: inhibition in vivo at 200 µg/ear (%)

In [3]: df
Out[3]:
                                   compound                     assay_system                      measure_name  reported_measurement
0  CCCCC(=O)OCCNc1cc(C)nc2cn[nH]c12 [Example 9]  swelling induced by cantharidin  inhibition in vivo at 200 µg/ear                    69
1  CC(C)CCOC(=O)CCCNc1ccnc2cn[nH]c12 [Example 12]  swelling induced by cantharidin  inhibition in vivo at 200 µg/ear                    78
2  CC(=O)OCCCNc1cc(C)nc2cn[nH]c12 [Example 6]  swelling induced by cantharidin  inhibition in vivo at 200 µg/ear                    70
3  CCC(=O)OCCNc1cc(C)nc2cn[nH]c12 [Example 10]  swelling induced by cantharidin  inhibition in vivo at 200 µg/ear                    55
4  Cc1cc(NCCN2CCOCC2)c2[nH]ncc2n1 [Example 5, dihydrate]  swelling induced by cantharidin  inhibition in vivo at 200 µg/ear                  97.6
5  CCCCC(=O)OCCCNc1cc(C)nc2cn[nH]c12 [Example 4]  swelling induced by cantharidin  inhibition in vivo at 200 µg/ear                  69.9
6  Cc1cc(NCCCN2CCCC2=O)c2[nH]ncc2n1 [Example 3]  swelling induced by cantharidin  inhibition in vivo at 200 µg/ear                  75.3
